- Assayed system: T1, CARD11, Q9BXL7
- T1 sequence (Q9BXL7 662-765, limits assumed, looked up): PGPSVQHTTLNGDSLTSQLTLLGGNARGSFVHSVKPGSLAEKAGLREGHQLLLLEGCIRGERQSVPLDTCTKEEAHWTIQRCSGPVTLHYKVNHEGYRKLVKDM
- Protocol notes: holdup assay
- Set-up: key: below the threshold = too weak to quantify, mostly under pKd 3.1 to 4
- Assay setup: plain residues with an end cap or a label only (N-terminal biotin on a linker: ado-ado)

{"Binder": "EFKQTSSFLV [JAM1, Q9Y624]", "pKd": "below the threshold"}
{"Binder": "DAAHHDESNC [FMNL3, Q8IVF7]", "pKd": "below the threshold"}
{"Binder": "GQNMTVSVVI [PRLHR, P49683]", "pKd": "below the threshold"}
{"Binder": "TFSRRPKTRV [CD226, Q15762]", "pKd": "below the threshold"}
{"Binder": "SQPLLVHDDV [KIT, P10721]", "pKd": "below the threshold"}
{"Binder": "EAVTVESTSL [SLC22A11, Q9NSA0]", "pKd": "below the threshold"}
{"Binder": "DLLGGGSDSI [TNRC6B, Q9UPQ9]", "pKd": "below the threshold"}
{"Binder": "HDDYFYHDEL [RCN2, Q14257]", "pKd": "below the threshold"}
